# Lookup of reported Octet binding response keyed by entry
# Target Of Assay: T1, hMPV PostF trimer (human metapneumovirus, strain B2)
# T1 construct: also called MPV PostF (dPFv1)
# Method: BLI, mAb on anti-human Fc sensor
Kindly provide the numeric value in nm only, without the unit symbol.

>>> measured_result("M4C03 (antibody, V domains shown, IgG) VH: EVQLVESGGTLVQPGGSLRLSCAASGFRFNAFSMNWVRQAPGKGLEWVSYIDSRSNIIYYADSVKGRFTISRDNAKTSLYLRMSSLRDEDTAVYYCAKALCVVNYDFWSGLLGCAMDVWGQGTTVTVSS VL: QSVLTQPPSVSGAPGQRVTISCTGTTSNIGAGFDVHWYQQVPGTAPKLLIYANTDRPSGVPDRFSASKSGTSASLAITGLQVEDEAHYYCQTYDTTLSGSTVFGGGTKLTVL")
0.506
>>> measured_result("M3C11 (antibody, V domains shown, IgG) VH: QVQLQESGPGLVKPSETLSLTCTVSGGSLSSYCWSWIRQPPGKGLEWIGYIYYSGGTNYNPSLKSRVTISVDTSKNQFSLNLSSVTAADTAVYYCARGEASGYLNYYFDYWGQGTLVAVSS VL: SYELTQPPSVSVSPGQTASITCSGHKLGDKYAYWYQQKPGQSPVLVIYQDNKRPSGIPERFSGSNSGNTATLTISGTQAMDEADYYCQAWDSGTVFGGGTKLTVL")
0.433
>>> measured_result("M3A05 (antibody, V domains shown, IgG) VH: QITLKESGPTLVKPTQTLTLTCTFSGFSLNTGGVSVGWIRQPPGKALEWLALIYWDGDKRYSPSLKSRLTITKDTSKNQVVFTMTNMDPVDTATYYCAHRENSAYIDFWGQGTLVTVSS VL: QSVLTQPPSVSAAPGQKVTISCSGSSSNIGNNYVSWYQQLPGAAPKLLIYDNNKRPSGIPDRFSGSKSGTSASLGITGLQTGDEADYYCGTWDSSLSVGFYVFGTGTKVTVL")
0.229
>>> measured_result("M2B09 (antibody, V domains shown, IgG) VH: QVQLVQSGPEVKGPGASVRVSCKANGYTFTSYGINWVRQTPGQGLQWMGWISVHTDDTKDVQQFQDRVTMTTDTSTSTVFMELRNLRFDDTAVYYCARDRTDISGRVRDAFDLWGQGTLVTVSS VL: SYVLTQPPSVSVAPGQTAKITCGGNNIGSKSVHWYRQKPGQAPVLVVYDDSDRPSGIPERFSGSNSGNTATLTISRVEAGDEADYYCHVWDSYSDPNYVFGSGTKVTVL")
-0.0435

For the next question, use this binder.
Measured Octet binding response of M2D08 (antibody, V domains shown, IgG) VH: QVQLVESGGGVVQPGRSLRLSCAASGFVFRFSGMHWIRQAPGKGLQWVAHISDDGSQKYYADSVTGRFAISRDNSRNTLFLEMTGLRGDDTAVYYCARGDYGVSYFLAHWGLGELVIVSS VL: EIVLTQSPATLSLSPGERATLSCRASQNIYNYLAWYQQKPGQAPRLVIYDASNRATGIPARFSGSGSETDFTLTISSLEPEDFAVYYCQQRSDWTFGQGTKLEIK : -0.0414
